- assayed.system: hH3R (Homo sapiens, UniProt Q9Y5N1)
- Sequence (Q9Y5N1 whole entry): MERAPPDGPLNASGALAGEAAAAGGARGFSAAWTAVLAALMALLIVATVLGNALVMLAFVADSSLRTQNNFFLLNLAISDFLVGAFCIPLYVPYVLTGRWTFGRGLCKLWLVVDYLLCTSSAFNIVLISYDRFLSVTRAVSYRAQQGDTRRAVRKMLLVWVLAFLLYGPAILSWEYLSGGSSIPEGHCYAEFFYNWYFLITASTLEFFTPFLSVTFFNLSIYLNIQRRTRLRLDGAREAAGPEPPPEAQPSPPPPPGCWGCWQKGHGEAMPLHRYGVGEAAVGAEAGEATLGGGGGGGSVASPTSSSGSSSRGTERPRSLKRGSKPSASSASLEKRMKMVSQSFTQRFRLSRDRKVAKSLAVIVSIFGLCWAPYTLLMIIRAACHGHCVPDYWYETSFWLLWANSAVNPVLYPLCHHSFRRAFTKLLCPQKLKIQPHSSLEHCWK
- assay.protocol: [35S]GTPγS binding assay, Sf9 membranes
- Format: biochemical
recorded.endpoint: Emax hH3R
Give bare numbers.

Illustrative cases are given below, each with its answer.
{"columns": ["sample.smiles", "number"],
 "data": [
  ["N=C(N)NCCCCCCCCCCCCNC(=N)NCCCc1c[nH]cn1", 0],
  ["N=C(NCCCCCCCCCCNC(N)=O)NCCCc1c[nH]cn1", "−1.20"],
  ["N=C(NCCCCCCCCCCCCN)NCCCc1c[nH]cn1", 0]
]}

Quick batch: Emax hH3R for everything below.
1. Cc1nc(N)sc1CCCNC(=N)NCCCCCCCCCCCCNC(=N)N
2. Cc1nc(N)sc1CCCNC(=N)NCCCCCCCCCCCCN

["−1.21", "−0.69"]
